# Assay System: TRPV1 receptor (Rattus norvegicus, UniProt O35433)
# Sequence (O35433 whole entry): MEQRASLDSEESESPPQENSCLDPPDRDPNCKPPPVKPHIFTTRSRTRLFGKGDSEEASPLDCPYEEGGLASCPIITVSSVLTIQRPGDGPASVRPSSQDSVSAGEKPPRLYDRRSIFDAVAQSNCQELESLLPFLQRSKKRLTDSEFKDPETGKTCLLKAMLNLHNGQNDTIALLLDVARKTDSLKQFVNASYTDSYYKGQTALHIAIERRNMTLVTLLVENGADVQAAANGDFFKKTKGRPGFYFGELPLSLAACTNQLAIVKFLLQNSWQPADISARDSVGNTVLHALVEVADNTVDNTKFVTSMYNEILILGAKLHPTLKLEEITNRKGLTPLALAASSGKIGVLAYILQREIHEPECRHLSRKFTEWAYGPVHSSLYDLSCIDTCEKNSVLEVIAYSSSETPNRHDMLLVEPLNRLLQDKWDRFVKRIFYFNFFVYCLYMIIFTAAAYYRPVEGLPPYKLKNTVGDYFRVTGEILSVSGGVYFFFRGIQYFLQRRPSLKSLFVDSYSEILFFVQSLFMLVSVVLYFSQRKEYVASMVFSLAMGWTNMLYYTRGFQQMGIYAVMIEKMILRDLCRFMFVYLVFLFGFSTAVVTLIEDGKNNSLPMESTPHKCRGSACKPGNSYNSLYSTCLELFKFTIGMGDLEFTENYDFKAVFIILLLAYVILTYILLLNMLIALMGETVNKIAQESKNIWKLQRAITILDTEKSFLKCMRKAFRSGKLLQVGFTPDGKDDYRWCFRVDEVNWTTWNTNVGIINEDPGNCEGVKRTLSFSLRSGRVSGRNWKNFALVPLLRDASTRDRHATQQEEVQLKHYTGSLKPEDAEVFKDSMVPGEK
# Measurement Protocol: TRPV1 modulation in DRG neurones: CGRP release in absence and presence of capsaicin (Assay 2)
# Assay type: cell-based
# Set-up: The culture used for this experiment contained sensory neurones, Schwann cells and fibroblasts; endogenous in cells; host or cells: primary rat DRG sensory neurone culture (with Schwann cells and fibroblasts)
# Settings: 20 min; 3 μM with capsaicin 1 μM; −ve: inhibition, +ve: potentiation of capsaicin response; read-out: Effect of test compounds on capsaicin (1 μM)-induced CGRP release (%)
inhibition at 3 µM overview
Attribute Measured: inhibition at 3 µM (%)

| Compound | Assay System | Unit Spec | Result Number |
| --- | --- | --- | --- |
| COc1cc(CCC(=O)CC(=O)C(C)(C)c2ccccc2)ccc1O | TRPV1 receptor (Rattus norvegicus, UniProt O35433) | % | 17 |
| COc1cc(CCC(=O)CC(=O)C(c2ccccc2)c2ccccc2)ccc1O | TRPV1 receptor (Rattus norvegicus, UniProt O35433) | % | 49 |
| COc1cc(CCC(=O)C(C)C(=O)C(C)(C)C)ccc1O (stereo not shown) | TRPV1 receptor (Rattus norvegicus, UniProt O35433) | % | -58 |
| COc1ccc(C(=O)C(C)C(=O)CCc2ccc(O)c(OC)c2)cc1 (stereo not shown) | TRPV1 receptor (Rattus norvegicus, UniProt O35433) | % | -98 |
| COC(=O)c1ccc(C(=O)CC(=O)CCc2ccc(O)c(OC)c2)cc1 | TRPV1 receptor (Rattus norvegicus, UniProt O35433) | % | 18 |
| COc1cc(CCC(=O)CC(=O)c2ccc(C#N)cc2)ccc1O | TRPV1 receptor (Rattus norvegicus, UniProt O35433) | % | 4 |
| COc1cc(CCC(=O)C(Cc2ccccc2)C(=O)c2ccccc2)ccc1O (stereo not shown) | TRPV1 receptor (Rattus norvegicus, UniProt O35433) | % | 48 |
| COc1cc(CCC(=O)CC(=O)c2ccccc2Cl)ccc1O | TRPV1 receptor (Rattus norvegicus, UniProt O35433) | % | 15 |
| CCC(C(=O)CCc1ccc(O)c(OC)c1)C(=O)c1ccccc1 (stereo not shown) | TRPV1 receptor (Rattus norvegicus, UniProt O35433) | % | 13 |
| COc1cc(CCC(=O)C(C)(C)C(=O)c2ccccc2)ccc1O | TRPV1 receptor (Rattus norvegicus, UniProt O35433) | % | 47 |
| COc1cc(CCC(=O)CC(=O)c2ccccc2C)ccc1O | TRPV1 receptor (Rattus norvegicus, UniProt O35433) | % | 32 |
| COc1cc(CCC(=O)CC(=O)c2ccccc2)ccc1O | TRPV1 receptor (Rattus norvegicus, UniProt O35433) | % | -49 |
| COc1cc(CCC(=O)CC(=O)c2ccc(C(C)(C)C)cc2)ccc1O | TRPV1 receptor (Rattus norvegicus, UniProt O35433) | % | 11 |
| COc1cc(CCC(=O)C(C)C(=O)c2ccc(O)c(OC)c2)ccc1O (stereo not shown) | TRPV1 receptor (Rattus norvegicus, UniProt O35433) | % | -49 |
| COc1cc(CCC(=O)CC(=O)c2ccc(Cl)cc2C)ccc1O | TRPV1 receptor (Rattus norvegicus, UniProt O35433) | % | 9 |
| COc1cc(CCC(=O)CC(=O)c2ccc(-c3ccccc3)cc2)ccc1O | TRPV1 receptor (Rattus norvegicus, UniProt O35433) | % | 10 |
| COc1cc(CCC(=O)C(C)C(=O)c2ccc(C)cc2)ccc1O (stereo not shown) | TRPV1 receptor (Rattus norvegicus, UniProt O35433) | % | -12 |
| COc1cc(CCC(=O)CC(=O)c2ccc(O)c(OC)c2)ccc1O | TRPV1 receptor (Rattus norvegicus, UniProt O35433) | % | 18 |
| COc1cc(CCC(=O)CC(=O)c2cccc(Cl)c2)ccc1O | TRPV1 receptor (Rattus norvegicus, UniProt O35433) | % | 2 |

###

# Tested on: WI-38 cells
# Measurement Protocol: Viability of WI-38 cells, Alamar Blue (Assay 5)
# Assay type: cell-based, human
# Settings: 3 μM

| Molecule | Decrease in cell viability (%) |
| --- | --- |
| CCC(=O)CC(=O)CCc1ccc(O)c(OC)c1 [3-gingerdione, reference compound] | 4 |
| COc1cc(CCC(=O)C(C)C(=O)c2ccccc2)ccc1O (stereo not drawn) [Compound 11] | 1 |
| COc1cc(CCC(=O)CC(=O)c2ccc(Cl)cc2C)ccc1O [Compound 76] | 4 |
| COc1cc(CCC(=O)CC(=O)C(C)C)ccc1O [Compound 1] | 3 |
| COc1cc(CCC(=O)C(C)(C)C(=O)C2(C)CC2)ccc1O [Compound 70] | 0 |
| COc1cc(CCC(=O)CC(=O)c2ccc3ccccc3c2)ccc1O [Compound 26] | 3 |
| COc1cc(CCC(=O)CC(=O)c2ccccc2)ccc1O [Compound 69] | 3 |
| COc1cc(CCC(=O)CC(=O)c2ccc3ccccc3c2)c(Cl)cc1O [Compound 86] | 7 |
| COc1cc(CCC(=O)CC(=O)c2ccccc2-c2ccccc2)ccc1O [Compound 19] | −1 |

###

# Test system: WI-38 cells
# Measurement Protocol: Viability of WI-38 cells, Alamar Blue (Assay 5)
# Assay type: cell-based, human
# Settings: 3 μM
Decrease in cell viability (%) overview
Attribute Measured: Decrease in cell viability (%)

| Molecule | Result Number |
| --- | --- |
| COc1cc(CCC(=O)CC(=O)Cc2cccc3ccccc23)ccc1O [Compound 29] | −1 |
| COc1cc(CCC(=O)CC(=O)C2(C)CC2)ccc1O [Compound 6] | 6 |
| COc1cc(CCC(=O)C(C)C(=O)c2ccc(C)cc2)ccc1O (centres unmarked) [Compound 14] | 5 |
| COc1cc(CCC(=O)CC(=O)C(C)(C)C)ccc1O [Compound 2] | −2 |
| COc1cc(CCC(=O)CC(=O)c2cccc3ccccc23)ccc1O [Compound 27] | 4 |
| COc1ccc(C(=O)C(C)C(=O)CCc2ccc(O)c(OC)c2)cc1 (centres unmarked) [Compound 17] | −1 |
| COC(=O)c1ccc(C(=O)CC(=O)CCc2ccc(O)c(OC)c2)cc1 [Compound 25] | −6 |
| COc1cc(CCC(=O)CC(=O)c2ccc(Cl)c(Cl)c2)ccc1O [Compound 23] | 6 |
| COc1cc(CCC(=O)CC(=O)c2ccc(Cl)cc2)ccc1O [Compound 21] | 3 |
| COc1cc(CCC(=O)C(C)C(=O)C2(C)CC2)ccc1O (centres unmarked) [Compound 7] | −4 |
| COc1cc(CCC(=O)C(C)(C)C(=O)c2ccc(C)cc2)ccc1O [Compound 81] | 3 |
| COc1cc(CCC(=O)CC(=O)c2ccc(-c3ccccc3)cc2)ccc1O [Compound 18] | 3 |
| COc1cc(CCC(=O)C(Cc2ccccc2)C(=O)c2ccccc2)ccc1O (centres unmarked) [Compound 13] | −4 |
| COc1cc(CCC(=O)CC(=O)c2ccc(F)cc2)ccc1O [Compound 20] | 3 |
| COc1cc(CCC(=O)C(C)C(=O)C(C)(C)C)ccc1O (centres unmarked) [Compound 4] | −3 |
| COc1cc(/C=C/C(=O)CC(=O)c2ccc(O)c(OC)c2)ccc1O [Compound 47] | 1 |
| COc1cc(CCC(=O)C(C)C(=O)c2ccc(O)c(OC)c2)ccc1O (centres unmarked) [Compound 16] | 10 |
| COc1cc(CCC(=O)CC(=O)c2ccc(C)cc2)ccc1O [Compound 80] | 2 |
| COc1cc(CCC(=O)CC(=O)c2ccc(C#N)cc2)ccc1O [Compound 82] | −4 |
| COc1cc(CCC(=O)CC(=O)c2ccccc2C)ccc1O [Compound 84] | 3 |

###

CGRP release (% of capsaicin (1 μM) response) overview
# Assay System: TRPV1 receptor (Rattus norvegicus, UniProt O35433)
# Measurement Protocol: TRPV1 modulation in DRG neurones: CGRP release in absence and presence of capsaicin (Assay 2)
# Type: cell-based
# Design: The culture used for this experiment contained sensory neurones, Schwann cells and fibroblasts; endogenous in cells; host or cells: primary rat DRG sensory neurone culture (with Schwann cells and fibroblasts)
# Settings: test compound alone 30 μM, rat DRG sensory neurones, 20 min
Attribute Measured: CGRP release (% of capsaicin (1 μM) response) (%)

| Molecule | Result Number |
| --- | --- |
| COc1cc(CCC(=O)CC(=O)C(C)C)ccc1O | 41 |
| COc1cc(CCC(=O)CC(=O)c2ccc(Cl)c(Cl)c2)ccc1O | 242 |
| COc1cc(CCC(=O)CC(=O)c2ccc(Cl)cc2Cl)ccc1O | 193 |
| CCC(=O)CC(=O)CCc1ccc(O)c(OC)c1 [3-gingerdione, reference compound] | 18 |

###

inhibition at 30 µM overview
# Assay System: TRPV1 receptor (Rattus norvegicus, UniProt O35433)
# Measurement Protocol: TRPV1 modulation in DRG neurones: CGRP release in absence and presence of capsaicin (Assay 2)
# Type: cell-based
# Parameters: The culture used for this experiment contained sensory neurones, Schwann cells and fibroblasts; endogenous in cells; host or cells: primary rat DRG sensory neurone culture (with Schwann cells and fibroblasts)
# Settings: 20 min; 30 μM with capsaicin 1 μM; −ve: inhibition, +ve: potentiation of capsaicin response; read-out: Effect of test compounds on capsaicin (1 μM)-induced CGRP release (%)

| Molecule | Unit Spec | inhibition at 30 µM |
| --- | --- | --- |
| COc1cc(CCC(=O)CC(=O)c2ccc(-c3ccccc3)cc2)ccc1O [Compound 18] | % | -12 |
| COc1cc(CCC(=O)CC(=O)c2ccccc2Cl)ccc1O [Compound 74] | % | 6 |
| COc1cc(CCC(=O)C(C)C(=O)C2(C)CC2)ccc1O (centres unmarked) [Compound 7] | % | 41 |
| COc1cc(CCC(=O)CC(=O)c2ccc(O)c(OC)c2)ccc1O [Compound 15] | % | 27 |
| COc1cc(CCC(=O)C(C)C(=O)C(C)(C)C)ccc1O (centres unmarked) [Compound 4] | % | -24 |
